# Target Desc: Pyruvate kinase (Leishmania mexicana) (UniProt Q27686)
# Sequence (Q27686 whole entry, looked up): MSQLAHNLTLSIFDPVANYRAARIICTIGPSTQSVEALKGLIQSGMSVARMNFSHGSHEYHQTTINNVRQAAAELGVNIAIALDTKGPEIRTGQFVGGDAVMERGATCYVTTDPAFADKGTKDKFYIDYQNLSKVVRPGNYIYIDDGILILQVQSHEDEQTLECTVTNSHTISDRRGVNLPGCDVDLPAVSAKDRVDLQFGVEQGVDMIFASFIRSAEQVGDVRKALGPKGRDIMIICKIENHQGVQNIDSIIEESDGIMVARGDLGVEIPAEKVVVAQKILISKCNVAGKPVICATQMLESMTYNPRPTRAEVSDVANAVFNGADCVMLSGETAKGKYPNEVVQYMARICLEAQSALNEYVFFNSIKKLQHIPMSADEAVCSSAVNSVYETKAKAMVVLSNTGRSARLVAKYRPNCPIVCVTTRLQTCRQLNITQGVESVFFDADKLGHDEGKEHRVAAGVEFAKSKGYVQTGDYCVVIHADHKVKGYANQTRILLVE
# Experiment Summary: qHTS Assay for Inhibitors of Leishmania Mexicana Pyruvate Kinase (LmPK)
# Cond: purified LmPK, Kinase-Glo ATP luminescence, 1 h; series mostly up to 57.5 µM
About 1,100 (0.38%) of roughly 290,000 compounds were called active. The call rests on the fitted dose curve; in most records, active means well fitted inhibition curve with a large enough effect; inconclusive means small, poorly fitted or top-dose-only effect, or another doubt; inactive means no such curve, though single readings can be large or run the other way. The entries come from a sample that favours actives as a whole.
Hi! Could you answer with just one of these? active, inactive

A selection of reference data follows.
Compound	Group Label
COC(=O)c1ccc2c(C(C)(C)O)c(C(C)(C)O)[nH]c2c1	inactive
COc1cccc(NC(=O)COc2cc(C)cc3oc(=O)cc(C)c23)c1	inactive
CCOC(=O)c1cc(S(=O)(=O)NCCc2ccc(OC)c(OC)c2)cn1C	inactive

Check the results log: what was the call for O=c1oc2ccccc2cc1-c1csc(Nc2ccc(O)cc2)n1 ?
inactive

Hey, what did the test say about N/C(=N\OC(=O)c1ccc([N+](=O)[O-])cc1)c1ccccn1 ?
active

Hi, do you know how Cc1cccc(NC(=O)c2cc(S(=O)(=O)N3CCC4(CC3)OCCO4)ccc2F)c1 came out in this test?
inactive

----------
# Target Desc: Pyruvate kinase (Leishmania mexicana) (UniProt Q27686)
# Experiment Summary: qHTS Assay for Inhibitors of Leishmania Mexicana Pyruvate Kinase (LmPK); on activity change, negative = inhibition: on the % scale 0 is the no-effect control and ±100 the full control effect
# Cond: purified LmPK, Kinase-Glo ATP luminescence, 1 h; series mostly up to 57.5 µM
Out of some 290,000 compounds screened, about 1,100 (0.38%) were called active. The full list was thinned out, with actives kept by preference.
Quick reference for activity change, negative = inhibition among some molecules

Given Smiles	activity change, negative = inhibition
C[C@H]1Cc2c(COc3ccccc3)nc3c(c2CO1)CN(C(=O)NCc1ccco1)CC3	4.14% [at 11.5 µM] (inactive)
Cc1cc2c(c(=O)n1Cc1ccccc1)C1O[C@](CCCCN3C(=O)c4ccccc4C3=O)(Cc3ccccc31)O2	-8.6% [at 11.5 µM] (inactive)
C=CCN1c2ccccc2[C@]23C[C@@H](C(=O)OC)N(S(=O)(=O)c4ccc([N+](=O)[O-])cc4)C2=NC(C(=O)OC)=C(C(=O)OC)[C@H]13	-3.12% [at 11.5 µM] (inactive)
Brc1ccc2nc(N3CCCC3)sc2c1	-0.864% [at 11.5 µM] (inactive)

# lookup: activity change, negative = inhibition of COC(=O)C1=C(C(=O)OC)[C@@H]2Nc3ccccc3[C@@]23C[C@@H](C(=O)OC)N(S(=O)(=O)c2ccc([N+](=O)[O-])cc2)C3=N1
-0.378% [at 11.5 µM] (inactive)

----------
# Target Desc: Pyruvate kinase (Leishmania mexicana)
# Experiment Summary: qHTS Assay for Inhibitors of Leishmania Mexicana Pyruvate Kinase (LmPK); further: potency means the concentration at half of the fitted maximal effect
# Cond: purified LmPK, Kinase-Glo ATP luminescence, 1 h; series mostly up to 57.5 µM
# Source text: NIH Chemical Genomics Center [NCGC] […] ATP generation was detected in a coupled reaction by luciferase-mediated luminescence, an ATP-dependent process. […]
Screen size: about 290,000 compounds; about 1,100 (0.38%) were called active. The full list was thinned out, with actives kept by preference.
Metric: Potency

Below are worked cases with known answers.
Compound	Measured Result
COc1ccc(Br)cc1C(=O)NC(=S)Nc1cc(-c2nc3ccccc3[nH]2)ccc1C	inactive
Cc1cccc(/C(N)=N/OC(=O)c2ccccc2Cl)c1	11.2 µM (active)
CCn1c(CNS(=O)(=O)c2ccc(Cl)cc2)n[nH]c1=S	inactive
Cn1cc([N+](=O)[O-])c(C(=O)Nc2cnn(Cc3ccc(F)cc3)c2)n1	inactive
COc1ccccc1-n1c(-c2cc(-c3ccco3)[nH]n2)n[nH]c1=S	3.55 µM (active)

Sample COc1ccc(-c2n[nH]c(C)c2-c2ccc(OC)c(OC)c2)c(O)c1 — what was its Potency?
inactive

Sample COc1ccc2cc(S(=O)(=O)Nc3ccccn3)ccc2c1 — what was its Potency?
inactive

Tell me the measured Potency of CC(=O)C1=C(O)C(=O)N(c2ccc(Br)cc2)C1c1ccc([N+](=O)[O-])cc1 (configuration not stated) , please.
inactive

Value lookup for Potency; key = Cc1cc(-c2n[nH]c(=S)n2-c2ccc(C)c(C)c2)no1
inactive

Quick one: Potency for O=C(Nc1ncc([N+](=O)[O-])s1)C1COc2ccccc2O1 (configuration not stated) ?
inactive

Quick one: Potency for Cc1onc(C(=O)Nc2ccc3c(c2)OCO3)c1[N+](=O)[O-] ?
inactive

GET /values?readout=Potency&item= O=C(Nc1cccc(S(=O)(=O)Nc2ccc(Cl)cc2)c1)c1ccc2c(c1)OCCO2
inactive

Query: Potency; subject: COc1cccc(/C=C2\C=C(c3ccc(C)cc3)OC2=O)c1OC(C)=O
inactive

Entry COc1cccc(NC(=O)[C@H](Cc2c[nH]c3ccccc23)NC(=O)[C@@H]2Cc3ccccc3CN2)c1 has what Potency?
inactive
